# Tested on: Plasmodium berghei
# TEST METHOD NOTES: Luciferase/luciferin-expressing antifolate-resistant parasites were used to infect a culture of HepG2 cells that were pre-incubated with compounds. Infected hepatocytes emit light due to the luciferase reaction. Assay results are presented as the percent inhibition of light emission compared to control. […]
# Assay type: functional
# CONDITIONS: sporozoite, read-out: LUCIFERASE INFECTION ASSAY - IC50
pIC50: −log10 of the molar value.
As shown below, each of these compounds has a reported pIC50 value.
OBSERVATION TYPE: pIC50

# COMPOUND, OBSERVED VALUE
records = [
    ("CC(=O)NCCc1ccc(C(=O)Cn2cnc3ccc(Cl)cc3c2=O)s1", "< 5.00"),
    ("OC1CCC(Nc2nn3c(-c4ccc(F)c(Cl)c4)cnc3s2)CC1 (stereo unspecified)", "< 5.05"),
    ("CC(C)n1cc(C(=O)c2ccccc2O)cc1-c1nc2ccccc2o1", "< 5.00"),
    ("Cc1cccc(OCc2nnc(SCC(=O)c3ccc4c(c3)CCC4)o2)c1", "< 5.00"),
    ("Cc1nc(Sc2ncnc3scc(-c4ccc(F)cc4)c23)oc1C", "< 5.00"),
    ("COC(=O)c1cccc(OC(=O)/C=C/c2ccc(-c3ccccc3)s2)c1", "< 5.00"),
]
